Data credit: paper PMC7555119

- testDescription: Stability in aqueous media (H2O/acetonitrile 80:20, HPLC-MS)
- Format: physicochemical
- conditionDetails: H2O/acetonitrile (80:20%), room temperature, checked for 60 days
quantity: stability in aqueous media

Sample records with stability in aqueous media:
{"molecule": "O=C(Nc1ccc(O)cc1)Nc1ccc(O)cc1 [Compound 15, N,N′-bis(4-Hydroxyphenyl)urea]", "stability in aqueous media": "sufficiently stable"}
{"molecule": "O=C(Cc1ccc(O)cc1O)Nc1ccc(O)cc1", "stability in aqueous media": "sufficiently stable"}
{"molecule": "O=C(Cc1cc(O)ccc1O)N(Cc1cc(O)ccc1O)c1ccc(O)cc1", "stability in aqueous media": "most unstable"}
{"molecule": "O=C(Nc1ccc(O)cc1)N(c1ccc(O)cc1)c1ccc(O)cc1", "stability in aqueous media": "sufficiently stable"}
{"molecule": "O=C(Cc1cc(O)ccc1O)Nc1cc(O)ccc1O", "stability in aqueous media": "most unstable"}
{"molecule": "O=C(Cc1ccc(O)c(O)c1)Nc1ccc(O)cc1", "stability in aqueous media": "sufficiently stable"}

Now consider a different molecule.
-- ask # stability in aqueous media lookup, item O=C(Cc1cc(O)ccc1O)Nc1ccc(O)cc1
-- reply sufficiently stable
